test system: U-2932; test: growth inhibition by drug plus 177Lu-lilotomab satetraxetan (1 - RLU/untreated control) (fraction); higher = stronger inhibition; details: 1000 nM; time (day): 3; 177Lu-lilotomab satetraxetan 1 ug/ml
Counter-ions that a name gives are not always drawn.
// map growth inhibition by drug plus 177Lu-lilotomab satetraxetan onto a label; ranges low = under -0.009, mid = from -0.009 up to 0.1, high = 0.1 and over

compound=COc1ccc(S(=O)(=O)Nc2cccnc2Nc2ccc(O)cc2)cc1 measuredtarget=U-2932 grouplabel=high
compound=CNCc1ccc(-c2[nH]c3cc(F)cc4c3c2CCNC4=O)cc1 measuredtarget=U-2932 grouplabel=mid
compound=Cc1nc(N)sc1-c1ccnc(Nc2ccc(N3CCOCC3)cc2)n1 measuredtarget=U-2932 grouplabel=mid
compound=COc1ccc(-c2oc3cc(OC)ccc3c2C(=O)c2ccc(C#N)cc2)cc1 measuredtarget=U-2932 grouplabel=low
compound="COc1cc(Nc2ncc3c(n2)-c2ccc(Cl)cc2C(c2c(F)cccc2OC)=NC3)ccc1C(=O)O [MLN8237 (Alisertib)]" measuredtarget=U-2932 grouplabel=high
compound="COC(=O)C1=C(C)NC(C)=C(C(=O)OCCCN2CCC(c3ccccc3)(c3ccccc3)CC2)[C@H]1c1cccc([N+](=O)[O-])c1 [S-(+)-Niguldipine hydrochloride]" measuredtarget=U-2932 grouplabel=high
compound="CC(C)n1c(/C=C/C(O)CC(O)CC(=O)O)c(-c2ccc(F)cc2)c2ccccc21 (stereo unspecified) [Fluvastatin sodium (Lescol)]" measuredtarget=U-2932 grouplabel=mid
compound="CC(=O)O[C@@]12CO[C@@H]1C[C@H](O)[C@@]1(C)C(=O)[C@H](O)C3=C(C)[C@@H](OC(=O)[C@H](O)[C@@H](NC(=O)OC(C)(C)C)c4ccccc4)C[C@@](O)([C@@H](OC(=O)c4ccccc4)[C@H]21)C3(C)C [Docetaxel (Taxotere)]" measuredtarget=U-2932 grouplabel=high
compound="COc1ccccc1OCC(O)CN1CCN(CC(=O)Nc2c(C)cccc2C)CC1 (stereo unspecified) [Ranolazine (Ranexa)]" measuredtarget=U-2932 grouplabel=low
compound=O=C(Nc1ncc([N+](=O)[O-])s1)c1ccc([N+](=O)[O-])c(Cl)c1 measuredtarget=U-2932 grouplabel=high
compound=CC(=O)Nc1nc(C)c(-c2ccc(Cl)c(S(=O)(=O)NCCO)c2)s1 measuredtarget=U-2932 grouplabel=high
compound=OCCn1cc(-c2cnc3nnn(Cc4ccc5ncccc5c4)c3n2)cn1 measuredtarget=U-2932 grouplabel=mid
compound=CN1CCN(c2cccc(Nc3nc4c(-c5ccc(S(C)(=O)=O)cc5)cccn4n3)c2)CC1 measuredtarget=U-2932 grouplabel=low
compound="CC(C)(C)c1cc(NC(=O)Nc2ccc(-c3cn4c(n3)sc3cc(OCCN5CCOCC5)ccc34)cc2)no1 [Quizartinib (AC220)]" measuredtarget=U-2932 grouplabel=low
compound="Clc1ccc(Nc2nnc(Cc3ccncc3)c3ccccc23)cc1 [Vatalanib dihydrochloride (PTK787)]" measuredtarget=U-2932 grouplabel=low

Reference for the values: the supplement of paper PMC6897291
